The reported measurements were obtained from ChEMBL document CHEMBL1156767.

Property: Activity; scope: individual compounds
Target: Cannabinoid receptor 2 (Homo sapiens, UniProt P34972)
Sequence (P34972 whole entry): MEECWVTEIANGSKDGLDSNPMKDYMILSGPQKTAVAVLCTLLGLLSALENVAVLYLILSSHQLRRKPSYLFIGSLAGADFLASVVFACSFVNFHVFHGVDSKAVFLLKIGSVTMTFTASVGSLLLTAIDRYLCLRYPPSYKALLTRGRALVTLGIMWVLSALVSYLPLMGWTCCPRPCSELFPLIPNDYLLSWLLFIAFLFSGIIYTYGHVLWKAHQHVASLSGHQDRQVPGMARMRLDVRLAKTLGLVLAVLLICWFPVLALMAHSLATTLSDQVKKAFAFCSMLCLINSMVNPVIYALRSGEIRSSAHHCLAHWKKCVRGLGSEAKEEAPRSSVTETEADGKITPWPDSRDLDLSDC
Test: Agonist activity at human recombinant CB2 receptor expressed in HEK293 cells coexpressing Galphaq/o5 assessed as calcium mobilization by FLIPR assay relative to CP-55940
Assay type: functional, cell-based
Express your answer in %, writing the number without its unit.

For orientation, consider the following solved cases.
>>> value_reported("CC1(C)C(C(=O)c2cn(CCc3nsc(Cl)n3)c3ccccc23)C1(C)C")
97
>>> value_reported("CC1(C)C(C(=O)c2cn(CCCN3CCOCC3)c3ccccc23)C1(C)C")
56
>>> value_reported("CN1CCCCC1Cn1cc(C(=O)C2C(C)(C)C2(C)C)c2ccccc21 (stereo unspecified)")
48

*Q* Notebook entry, Cannabinoid receptor 2 (Homo sapiens, UniProt P34972) assay: Activity of `CC1(C)C(C(=O)c2cn(CCn3cccc3)c3ccccc23)C1(C)C` = ?
*A* 97

*Q* Notebook entry, Cannabinoid receptor 2 (Homo sapiens, UniProt P34972) assay: Activity of `CSCCCCn1cc(C(=O)C2C(C)(C)C2(C)C)c2ccccc21` = ?
*A* 74

*Q* Notebook entry, Cannabinoid receptor 2 (Homo sapiens, UniProt P34972) assay: Activity of `CC1(C)C(C(=O)c2cn(CC3OCCO3)c3ccccc23)C1(C)C` = ?
*A* 133

----------
Property: log10 EC50; scope: individual compounds
Target: Cannabinoid receptor 2 (Homo sapiens, UniProt P34972)
Assay: Agonist activity at human recombinant CB2 receptor expressed in HEK293 cells coexpressing Galphaq/o5 assessed as calcium mobilization by FLIPR assay
Assay type: functional, cell-based
Scale: decimal log of EC50, EC50 in nM.

>>> value_reported("CC1(C)C(C(=O)c2cn(CCCCCO)c3ccccc23)C1(C)C")
1.04

*Q* I would be grateful if you could share the reported log10 EC50 for `CC1(C)C(C(=O)c2cn(CCc3cccnc3)c3ccccc23)C1(C)C` .
*A* 1.79

*Q* I would be grateful if you could share the reported log10 EC50 for CC1(C(=O)c2cn(CC3CCOCC3)c3ccccc23)CC(F)(F)C1(F)F (configuration not stated) .
*A* 2.29

*Q* I would be grateful if you could share the reported log10 EC50 for `CC1(C)C(C(=O)c2cn(CCN3CCOC3=O)c3ccccc23)C1(C)C` .
*A* 0.30

*Q* I would be grateful if you could share the reported log10 EC50 for `CC1(C)C(C(=O)c2cn(CCn3cccc3)c3ccccc23)C1(C)C` .
*A* 1.73

----------
Property: pEC50; scope: individual molecules
Molecular target: Cannabinoid receptor 2 (Homo sapiens, UniProt P34972)
Assay: Agonist activity at human recombinant CB2 receptor expressed in HEK293 cells assessed as inhibition of forskolin-induced cAMP production
Format: functional, cell-based
Friendly reminder that pEC50 comes from taking -log10 of the concentration in mol/L.

For orientation, consider the following solved cases.
>>> value_reported("CC1(C)C(C(=O)c2cn(CC3CCOCC3)c3ccccc23)C1(C)C")
8.57
>>> value_reported("CC1(C)C(C(=O)c2cn(CCN3CCOC3=O)c3ccccc23)C1(C)C")
9.01
>>> value_reported("CC1(C)C(C(=O)c2cn(CCCCO)c3ccccc23)C1(C)C")
8.68

*Q* I would be grateful if you could share the reported pEC50 for `CC1(C)C(C(=O)c2cn(CCN3CCOCC3)c3ccccc23)C1(C)C` .
*A* 9.28
